# System: glucose-6-phosphate dehydrogenase-6-phosphogluconolactonase (Plasmodium falciparum 3D7)
# procedureDetails: inhibition of malaria parasite G6PD (PfGluPho) – biochemical, fluorescence intensity, uHTS, primary screen (AID 504690);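 also: 0% = DMSO wells with substrate and 100% = DMSO wells lacking glucose-6-phosphate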
# conditionSummary: PfGluPho enzyme, NADPH resazurin-diaphorase fluorescence; at 20 µM; active compounds read high
About 2,700 (0.77%) of roughly 350,000 compounds were called active. The entries come from a sample that favours actives as a whole.
Quick rule for you: inhibition at 20% or higher means 1 (yes), lower means 0 (no).

CC(C)c1cc(C(N)=O)c(NC(=O)c2cccc(COc3ccc(Br)cc3)c2)s1; 0 (no)
Cn1c(-c2ccco2)nc2cc3ccccc3cc21; 1 (yes)
C/C(=C\c1ccco1)CN1CCC(N2CCC(C(=O)N3CCOCC3)CC2)CC1; 0 (no)
CCOc1c2ccc(C(=O)NC3CCCc4ccccc43)cc2nn1CC (stereo unspecified); 0 (no)
COc1ccc(NC(=O)COC(=O)C2COc3ccccc3O2)cc1 (stereo unspecified); 0 (no)

Query: Determine whether this compound has inhibition no lower than 20%: COc1ccc(-n2cnc3cc(NCc4ccco4)ccc32)cc1
Response: 1 (yes)

Query: Determine whether this compound has inhibition no lower than 20%: Cc1ccc2nnn(Cc3cccc(C(C)(C)C)c3O)c2c1
Response: 0 (no)

Query: Determine whether this compound has inhibition no lower than 20%: Nc1ccccc1SC(C[N+](=O)[O-])c1ccccc1 (stereo unspecified)
Response: 1 (yes)
